Data provenance is patent US20260317319A1.

system: 5-HT2A receptor (Homo sapiens, UniProt P28223)
Sequence (P28223 whole entry): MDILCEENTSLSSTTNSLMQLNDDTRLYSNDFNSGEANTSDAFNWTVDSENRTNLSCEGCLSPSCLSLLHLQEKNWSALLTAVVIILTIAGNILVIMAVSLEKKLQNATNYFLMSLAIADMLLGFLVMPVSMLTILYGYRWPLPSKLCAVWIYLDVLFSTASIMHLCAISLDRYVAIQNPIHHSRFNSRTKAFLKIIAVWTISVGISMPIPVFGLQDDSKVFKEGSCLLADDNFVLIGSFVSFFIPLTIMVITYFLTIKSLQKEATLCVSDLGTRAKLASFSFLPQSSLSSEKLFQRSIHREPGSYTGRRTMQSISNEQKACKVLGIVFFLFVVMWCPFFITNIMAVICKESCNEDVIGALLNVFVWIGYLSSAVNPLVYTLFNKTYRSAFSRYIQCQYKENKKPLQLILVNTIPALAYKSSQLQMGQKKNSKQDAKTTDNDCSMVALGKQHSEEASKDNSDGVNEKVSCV
test: cell-based
Format: cell-based
Parameters: expressed in transfected cells; host or cells: HEK293, stably transfected
recorded.conditions: agonist, Ca2+ flux, HEK293
Threshold-based label: EC50 under 200 nM gives T, EC50 not under 200 nM gives F.

-- ask Bench note: check whether CCN(CC)C(=O)[C@@H]1C=C2c3cccc4[nH]cc(c34)C[C@H]2N(Cc2cocn2)C1 shows EC50 below 200 nM
-- reply T

-- ask Strictly below 200 nM: is that where EC50 of CCN(C)C(=O)[C@@H]1C=C2c3cccc4[nH]cc(c34)C[C@H]2N(Cc2ccccc2)C1 sits?
-- reply F

-- ask is_below(EC50, 200 nM) for CCN(CC)C(=O)[C@@H]1C=C2c3cccc4[nH]cc(c34)C[C@H]2N(Cc2ccon2)C1 ?
-- reply T

-- ask Please indicate whether the reported EC50 of CCN(CC)C(=O)[C@H]1C=C2c3cccc4[nH]cc(c34)C[C@H]2N(Cc2ccc(C)cc2)C1 [Compound 97a] is strictly below 200 nM.
-- reply F

-- ask Does the reported EC50 of CN(C)C(=O)[C@@H]1C=C2c3cccc4[nH]cc(c34)C[C@H]2N(Cc2ccccc2)C1 stay below 200 nM?
-- reply T

-- ask Strictly below 200 nM: is that where EC50 of COc1cccc(CN2C[C@H](C(=O)N3[C@@H](C)C[C@@H]3C)C=C3c4cccc5[nH]cc(c45)C[C@H]32)c1 sits?
-- reply F

====

system: 5-HT2B receptor (Homo sapiens)
Construct: expressed in transfected cells; host or cells: HEK293, stably transfected
Sequence (P41595 whole entry): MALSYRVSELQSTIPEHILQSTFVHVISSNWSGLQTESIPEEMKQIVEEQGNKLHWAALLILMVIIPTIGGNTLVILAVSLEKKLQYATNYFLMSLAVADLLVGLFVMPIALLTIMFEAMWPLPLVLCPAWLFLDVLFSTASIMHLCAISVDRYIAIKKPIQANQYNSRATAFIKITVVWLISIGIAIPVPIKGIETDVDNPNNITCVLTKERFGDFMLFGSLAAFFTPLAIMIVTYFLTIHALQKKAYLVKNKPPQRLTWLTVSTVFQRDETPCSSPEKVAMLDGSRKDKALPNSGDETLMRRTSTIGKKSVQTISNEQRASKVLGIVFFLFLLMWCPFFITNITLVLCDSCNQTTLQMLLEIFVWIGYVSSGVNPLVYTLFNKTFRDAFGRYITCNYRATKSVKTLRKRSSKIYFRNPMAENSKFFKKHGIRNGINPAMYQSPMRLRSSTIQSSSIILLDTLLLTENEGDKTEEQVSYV
test: cell-based
Assay type: cell-based
recorded.conditions: agonist, Ca2+ flux, HEK293
parameter.measured: EC50

For record CCN(CC)C(=O)[C@@H]1C=C2c3cccc4[nH]cc(c34)C[C@H]2N(Cc2ccccc2C)C1 the listed EC50 is > 10 µM

Input CCN(CC)C(=O)[C@@H]1C=C2c3cccc4[nH]cc(c34)C[C@H]2N(Cc2ccncc2)C1 . Output EC50: > 100 µM

# molecule CCN(C)C(=O)[C@@H]1C=C2c3cccc4[nH]cc(c34)C[C@H]2N(CC2CCCC2)C1 ; its EC50 = > 10 µM

====

system: 5-HT1A receptor (Homo sapiens, UniProt P08908)
Sequence (P08908 whole entry): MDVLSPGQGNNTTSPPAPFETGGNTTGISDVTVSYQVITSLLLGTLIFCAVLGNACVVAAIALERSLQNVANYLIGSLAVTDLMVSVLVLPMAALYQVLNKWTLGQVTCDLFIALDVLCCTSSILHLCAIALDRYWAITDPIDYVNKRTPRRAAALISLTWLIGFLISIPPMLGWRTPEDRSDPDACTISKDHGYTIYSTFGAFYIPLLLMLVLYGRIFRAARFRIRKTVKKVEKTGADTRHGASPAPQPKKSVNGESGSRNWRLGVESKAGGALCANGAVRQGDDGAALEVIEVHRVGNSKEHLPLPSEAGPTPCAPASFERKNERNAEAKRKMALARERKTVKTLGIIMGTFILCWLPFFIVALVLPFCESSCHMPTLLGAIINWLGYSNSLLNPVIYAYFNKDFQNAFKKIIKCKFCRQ
test: cell-based
recorded.conditions: agonist, Ca2+ flux, CHO cells with Gα15
Procedure: Functional Assays at 5-HT2A, 5-HT2B, and 5-HT1A. Agonist activity at 5-HT2A, 5-HT2B, 5HT2C and 5-HT1A receptors was determined using a FLIPR Ca^2+ flux assay at WuXi AppTec (Hong Kong) Limited according to their standard protocols. […] 10 μL of references and compounds were then transferred from the compound plate into the cell plate and the fluorescent signal was read.
parameter.measured: EC50 (µM)
Record the value in µM, omitting the unit from your answer.

response.value for CCN(CC)C(=O)[C@@H]1C=C2c3cccc4[nH]cc(c34)C[C@H]2N(Cc2cccc(F)c2)C1 (field: EC50) = 7.99

CCN(CC)C(=O)[C@@H]1C=C2c3cccc4[nH]cc(c34)C[C@H]2N(Cc2cccc(O)c2)C1 yielded EC50 of 12.6

# EC50 (compound: CN(C)C(=O)[C@@H]1C=C2c3cccc4[nH]cc(c34)C[C@H]2N(Cc2ccccc2)C1 ) is 26.2

Looking up CCN(CC)C(=O)[C@@H]1C=C2c3cccc4[nH]cc(c34)C[C@H]2N(CC2CCCC2)C1 , I see its EC50 listed as 42.6

Kindly note the recorded EC50 for CCN(CC)C(=O)[C@@H]1C=C2c3cccc4[nH]cc(c34)C[C@H]2N(Cc2ccncc2)C1 , which is 1.46

Briefly, EC50 measured for CC[C@@H](C)NC(=O)[C@@H]1C=C2c3cccc4[nH]cc(c34)C[C@H]2N(Cc2cccc(OC)c2)C1 : 42.9

Lookup result for CCN(C)C(=O)[C@@H]1C=C2c3cccc4[nH]cc(c34)C[C@H]2N(CC2CCCC2)C1 ; measured EC50: 84.4

Quick note, EC50 for CCN(CC)C(=O)[C@@H]1C=C2c3cccc4[nH]cc(c34)C[C@H]2N(Cc2ccc3ccccc3c2)C1 landed at 20.8

Entry CCNC(=O)[C@@H]1C=C2c3cccc4[nH]cc(c34)C[C@H]2N(Cc2cccc(O)c2)C1 — recorded EC50 = 0.424

Reported EC50 ( CCN(CC)C(=O)[C@@H]1C=C2c3cccc4[nH]cc(c34)C[C@H]2N(Cc2ccon2)C1 ) = 62.3

The recorded EC50 for entry CCN(CC)C(=O)[C@@H]1C=C2c3cccc4[nH]cc(c34)C[C@H]2N(Cc2cccc(C#N)c2)C1 equals 25.4

Summary for this compound, CCN(CC)C(=O)[C@@H]1C=C2c3cccc4[nH]cc(c34)C[C@H]2N(Cc2cccnc2)C1 : EC50 is 4.09

====

Kindly supply the reported pKi values for the records listed here.
When answering, recall that pKi equals minus log10 of the concentration in mol/L, and write that number alone.

Result for C[C@H]1C[C@H](C)N1C(=O)[C@H]1C=C2c3cccc4[nH]cc(c34)C[C@H]2N(Cc2ccccc2)C1 [Compound 87a] , tested on 5-HT2A receptor (Homo sapiens, UniProt P28223), pKi: 5.94

Summary line: CCN(CC)C(=O)[C@@H]1C=C2c3cccc4[nH]cc(c34)C[C@H]2NC1 [Compound 83] , 5-HT2A receptor (Homo sapiens, UniProt P28223), reported pKi = 8.25

Measured pKi for this entry CC[C@@H](C)NC(=O)[C@H]1C=C2c3cccc4[nH]cc(c34)C[C@H]2N(Cc2ccccc2)C1 [Compound 88a] on 5-HT2A receptor (Homo sapiens, UniProt P28223): 6.72

Log: 5-HT2A receptor (Homo sapiens, UniProt P28223), compound CCN(CC)C(=O)[C@@H]1C=C2c3cccc4[nH]cc(c34)C[C@H]2N(Cc2ccc(Cl)cc2)C1 [Compound 50] , pKi = 8.38

Entry CCN(CC)C(=O)[C@@H]1C=C2c3cccc4[nH]cc(c34)C[C@H]2N(Cc2ccnc(OC)c2)C1 [Compound 79] , 5-HT2A receptor (Homo sapiens, UniProt P28223) data, pKi value: 6.74

The reported 5-HT2A receptor (Homo sapiens, UniProt P28223) pKi of CCN(CC)C(=O)[C@H]1C=C2c3cccc4[nH]cc(c34)C[C@H]2N(Cc2cccc3ccccc23)C1 [Compound 101a] is 6.12

Summary line: COc1cccc(CN2C[C@H](C(=O)N3CCCC3)C=C3c4cccc5[nH]cc(c45)C[C@H]32)c1 [Compound 91] , 5-HT2A receptor (Homo sapiens, UniProt P28223), reported pKi = 6.89

The reported 5-HT2A receptor (Homo sapiens, UniProt P28223) pKi of CCN(CC)C(=O)[C@H]1C=C2c3cccc4[nH]cc(c34)C[C@H]2N(Cc2cccc(C)c2)C1 [Compound 98a] is 6.04

Entry CCN(CC)C(=O)[C@@H]1C=C2c3cccc4[nH]cc(c34)C[C@H]2N(Cc2cccnc2)C1 [Compound 55] , tested on 5-HT2A receptor (Homo sapiens, UniProt P28223), has a reported pKi of 7.40

The compound CCN(CC)C(=O)[C@@H]1C=C2c3cccc4[nH]cc(c34)C[C@H]2N(Cc2ncco2)C1 [Compound 74] , tested on 5-HT2A receptor (Homo sapiens, UniProt P28223), showed pKi of 7.28

CCNC(=O)[C@@H]1C=C2c3cccc4[nH]cc(c34)C[C@H]2N(Cc2cccc(O)c2)C1 [Compound 64] on 5-HT2A receptor (Homo sapiens, UniProt P28223) gives pKi = 7.92

5-HT2A receptor (Homo sapiens, UniProt P28223) assay, compound CCN(CC)C(=O)[C@@H]1C=C2c3cccc4[nH]cc(c34)C[C@H]2N(Cc2cnco2)C1 [Compound 75] , recorded pKi = 7.89

GET /values?item= CCN(C)C(=O)[C@@H]1C=C2c3cccc4[nH]cc(c34)C[C@H]2N(Cc2cccc(OC)c2)C1 [Compound 92] &system= 5-HT2A receptor (Homo sapiens, UniProt P28223) returns pKi: 7.95

Kindly note: 5-HT2A receptor (Homo sapiens, UniProt P28223), CCN(CC)C(=O)[C@@H]1C=C2c3cccc4[nH]cc(c34)C[C@H]2N(Cc2ccc(F)c(F)c2)C1 [Compound 54] , pKi value reported: 8.27

With 5-HT2A receptor (Homo sapiens, UniProt P28223) as the test system, CCN(CC)C(=O)[C@@H]1C=C2c3cccc4[nH]cc(c34)C[C@H]2N(Cc2cccc(C#N)c2)C1 [Compound 76] showed pKi of 7.01

Bench note, 5-HT2A receptor (Homo sapiens, UniProt P28223): CC[C@@H](C)NC(=O)[C@H]1C=C2c3cccc4[nH]cc(c34)C[C@H]2N(Cc2ccccc2)C1 [Compound 95a] , pKi reads 6.91
